- System: Staphylococcus aureus
- experimentNotes: Antibacterial activity against Staphylococcus aureus ATCC 6538 assessed as reduction in microbial growth after 24 hrs by broth dilution method
- Type: functional
Task for the reader: assign each of the following compounds its reported MIC.

Here C#Cc1ccc(NC(=O)[C@@H](N)C(C)C)cc1 was tested on Staphylococcus aureus, and its MIC came to 2.5 µg/mL

Record for C#Cc1ccc(NC(=O)[C@@H](N)Cc2ccccc2)cc1 under target or system Staphylococcus aureus: MIC reported as 10 µg/mL

Readout MIC for CC(C)[C@H](N)C(=O)Nc1ccc(Cl)cc1 , test system Staphylococcus aureus, was 78 µg/mL

Sample CN[C@H](CC(C)C)C(=O)N[C@H]1C(=O)N[C@@H](CC(N)=O)C(=O)N[C@H]2C(=O)N[C@H]3C(=O)N[C@H](C(=O)N[C@H](C(=O)O)c4cc(O)cc(O)c4-c4cc3ccc4O)[C@H](O)c3ccc(c(Cl)c3)Oc3cc2cc(c3O[C@@H]2O[C@H](CO)[C@@H](O)[C@H](O)[C@H]2O[C@H]2C[C@](C)(N)[C@H](O)[C@H](C)O2)Oc2ccc(cc2Cl)[C@H]1O [VANCOMYCIN] , system: Staphylococcus aureus. Its MIC is < 0.63 µg/mL
